biological target: meditope-enabled trastuzumab; test: SPR
READOUT KIND: pKd
Reminder that pKd is minus the log10 of a molar concentration.

Req: Need pKd of meditope-protein L construct with six-residue linker GGGGSE (designed binder) , thanks.
Resp: 9.74

Req: Need pKd of meditope-protein L construct with six-residue linker GGPGSE (designed binder) , thanks.
Resp: 9.74

Req: Need pKd of meditope-protein L construct with six-residue linker PPPGPP (designed binder) , thanks.
Resp: 8.96

Just for reference, paper PMC4295097 is where these values come from.
